# Test system: velvetleaf (Abutilon theophrasti)
# Experimental Protocol: Test B pre-/postemergence plant response
# Assay type: in vivo
# Settings: Abutilon theophrasti, post-emergence, 240 h; Postemergence, 1000 g ai/ha; 0 to 100 scale (0 no effect, 100 complete control); read-out: Plant response rating, Velvetleaf
Measured pest or weed control at 1000 g/ha, listed per entry for reference.
Readout Type: pest or weed control at 1000 g/ha

Clc1ccc(-c2c(Cl)cccc2Oc2ncc(Cl)cn2)nc1 : 70%
Clc1ccc(-c2ccccc2Oc2ncc(Cl)cn2)nc1 : 100%
Clc1cnc(Oc2ccccc2-c2cc(Br)no2)nc1 : 90%
O=Cc1cc(-c2ccccc2Oc2ncc(Cl)cn2)no1 : 0%

----------
# Test system: large (Lg) crabgrass (Digitaria sanguinalis)
# Experimental Protocol: Test D pre-/postemergence plant response
# Type: in vivo
# Settings: Digitaria sanguinalis, post-emergence; Postemergence, 31 g ai/ha; scale 0 to 100 (0 no effect, 100 complete control); read-out: Crabgrass, Large plant response rating
Measured pest or weed control at 31 g/ha, listed per entry for reference.
Readout Type: pest or weed control at 31 g/ha (%)

FC(F)(F)c1cc(-c2ccccc2Oc2ncc(Cl)cn2)on1 : 5
Fc1cccc(Oc2ncc(Cl)cn2)c1-c1cc(C(F)F)on1 : 10
Fc1cccc(Oc2ncc(Cl)cn2)c1-c1cc(C(F)(F)F)on1 : 5
FC(F)c1cc(-c2ccccc2Oc2ncc(Cl)cn2)on1 : 20
FC(F)(F)c1cc(-c2ccccc2Oc2ncc(Cl)cn2)no1 : 10

----------
# Tested on: corn (Zea mays)
# Experimental Protocol: Test B pre-/postemergence plant response
# Type: in vivo
# Settings: 125 g ai/ha, postemergence; 0 to 100 scale, 0 no effect, 100 complete control
# Text: […]
Readout Type: Plant response rating, Corn

Fc1cnc(Oc2ccccc2-c2cc(C(F)(F)F)on2)nc1 : 0
FC(F)=Cc1cc(-c2c(F)cccc2Oc2ncc(Cl)cn2)no1 : 0
FC(F)(F)c1csc(-c2ccccc2Oc2ncc(I)cn2)n1 : 0
CC(F)(F)c1cc(-c2ccccc2Oc2ncc(Cl)cn2)no1 : 20
CC(C)(C)c1cc(-c2ccccc2Oc2ncc(Cl)cn2)no1 : 0
Cc1cc(-c2ccccc2Oc2ncc(Cl)cn2)on1 : 0
N#Cc1cccc(-n2cc(Br)cn2)c1Oc1ncc(Cl)cn1 : 0
FC(F)(F)c1cc(-c2ccccc2Oc2ncc(Cl)cn2)ncn1 : 0
Cn1nnnc1-c1ccccc1Oc1ncc(Cl)cn1 : 0
FC(F)(F)COc1cc(-c2ccccc2Oc2ncc(Cl)cn2)ncn1 : 20
FC(F)(F)c1ccnc(-c2c(Cl)cccc2Oc2ncc(Cl)cn2)c1 : 20
Clc1cnc(Oc2ccccc2-c2nccs2)nc1 : 0
Clc1cnc(Oc2ccccc2-c2cc(C3CC3)on2)nc1 : 10
N#Cc1cccc(Oc2ncc(Cl)cn2)c1-c1cc(C(F)F)on1 : 20
CC(C)(F)c1cc(-c2ccccc2Oc2ncc(Cl)cn2)no1 : 30
Fc1ccc(Oc2ncc(Cl)cn2)c(-c2cc(C(F)F)on2)c1Br : 50
N#Cc1cc(-c2ccccc2Oc2ncc(Cl)cn2)on1 : 0
Cc1cnc(Oc2ccccc2-c2cc(C(C)(F)F)on2)nc1 : 40
Cn1ccnc1-c1ccccc1Oc1ncc(Br)cn1 : 0
Fc1ccc(Oc2ncc(Cl)cn2)c(-c2cc(C(F)(Cl)Cl)on2)c1 : 50

----------
The compounds listed here are annotated with their Barnyardgrass plant response rating.
# Tested on: barnyardgrass (Echinochloa crus-galli)
# Experimental Protocol: Test D pre-/postemergence plant response
# Type: in vivo
# Settings: Postemergence, 31 g ai/ha; scale 0 to 100 (0 no effect, 100 complete control)
Readout Type: Barnyardgrass plant response rating

Cc1cc(-c2ccccc2Oc2ncc(Cl)cn2)no1 [Compound 60] : 0
Cc1cc(-c2c(F)cccc2Oc2ncc(Cl)cn2)on1 [Compound 229] : 5
Cc1cc(-c2c(F)cccc2Oc2ncc(Br)cn2)on1 [Compound 230] : 5
Clc1cnc(Oc2ccccc2-c2cc(Cl)sn2)nc1 [Compound 192] : 5
FCc1cc(-c2ccccc2Oc2ncc(Cl)cn2)on1 [Compound 224] : 5
FC(F)c1cc(-c2c(Cl)cccc2Oc2ncc(Cl)cn2)on1 [Compound 120] : 15
FC(F)c1cc(-c2c(Cl)cccc2Oc2ncc(Cl)cn2)no1 [Compound 179] : 0
FC(F)(F)c1cc(-c2c(I)cccc2Oc2ncc(Cl)cn2)no1 [Compound 156] : 0
FC(F)(F)c1cc(-c2ccccc2Oc2ncc(Cl)cn2)ncn1 [Compound 54] : 5
Fc1cccc(Oc2ncc(Br)cn2)c1-c1cc(C(F)F)on1 [Compound 118] : 20

----------
# System: giant foxtail (Setaria faberii)
# Experimental Protocol: Test D pre-/postemergence plant response
# Assay type: in vivo
# Settings: Setaria faberi, pre-emergence; Preemergence; 62 g ai/ha; scale 0 to 100 (0 no effect, 100 complete control); read-out: Plant response rating, Foxtail, Giant
Readout Type: pest or weed control at 62 g/ha (%)

N#Cc1cccc(Oc2ncc(Cl)cn2)c1-c1cc(C(F)(F)F)ccn1 [Compound 158] : 85
FC(F)c1cc(-c2ccccc2Oc2ncc(Cl)cn2)on1 [Compound 53] : 98
Fc1cccc(Oc2ncc(Br)cn2)c1-c1cc(C(F)F)no1 [Compound 145] : 100
FC(F)c1cc(-c2ccccc2Oc2ncc(Br)cn2)no1 [Compound 62] : 100
FCc1cc(-c2ccccc2Oc2ncc(Cl)cn2)no1 [Compound 32] : 95

----------
# System: soybean (Glycine max)
# Experimental Protocol: Test D pre-/postemergence plant response
# Format: in vivo
# Settings: Postemergence, 16 g ai/ha; scale 0 to 100 (0 no effect, 100 complete control)
Soybean plant response rating of 60 or higher: criterion met. Under 60: criterion not met.

Cc1cc(-c2ccccc2Oc2ncc(Cl)cn2)on1 [Compound 58] : criterion not met
Cn1nnc(-c2ccccc2Oc2ncc(Br)cn2)n1 [Compound 50] : criterion not met
FC(F)c1cc(-c2c(Cl)cccc2Oc2ncc(Cl)cn2)on1 [Compound 120] : criterion met
FC(F)(F)c1cc(-c2ccccc2Oc2ncc(Cl)cn2)ncn1 [Compound 54] : criterion not met
Fc1ccc(Oc2ncc(Cl)cn2)c(-c2cc(C(F)F)on2)c1F [Compound 113] : criterion met
Cc1cc(-c2ccccc2Oc2ncc(Cl)cn2)no1 [Compound 60] : criterion met

----------
# Test system: giant foxtail (Setaria faberii)
# Experimental Protocol: Test B pre-/postemergence plant response
# Assay type: in vivo
# Settings: 125 g ai/ha, postemergence; 0 to 100 scale, 0 no effect, 100 complete control
Readout Type: Plant response rating, Foxtail, Giant

Clc1cnc(Oc2ccccc2-c2ccon2)nc1 : 10
Cn1nnc(-c2ccccc2Oc2ncc(Cl)cn2)n1 : 0
Clc1cnc(Oc2ccccc2-c2cnccn2)nc1 : 10
COc1cnc(Oc2ccccc2-c2cc(C(F)F)no2)nc1 : 20
FC(F)c1cc(-c2c(Cl)cccc2Oc2ncc(Br)cn2)on1 : 90
Brc1cnc(Oc2ccccc2-c2cc(Br)no2)nc1 : 10
FC(F)(F)c1ccc(-c2ccccc2Oc2ncc(Br)cn2)nc1 : 20
Fc1ccc(-c2cc(C(F)(F)F)no2)c(Oc2ncc(Cl)cn2)c1 : 20
Cn1nc(C(F)(F)F)cc1-c1ccccc1Oc1ncc(Cl)cn1 : 0
Fc1cccc(Oc2ncc(Cl)cn2)c1-c1cc(C(F)(F)F)no1 : 90
Clc1cnc(Oc2ccccc2-c2cc(Cl)ccn2)nc1 : 0

----------
# System: pigweed (Amaranthus retroflexus)
# Experimental Protocol: Test D pre-/postemergence plant response
# Format: in vivo
# Settings: Postemergence, 62 g ai/ha; scale 0 to 100, 0 no effect, 100 complete control
Listed below: Plant response rating, Pigweed values for each entry.
Readout Type: Plant response rating, Pigweed

FC(F)c1cc(-c2c(Cl)cccc2Oc2ncc(Br)cn2)on1 : 100
FC(F)(F)c1cc(-c2c(I)cccc2Oc2ncc(Cl)cn2)no1 : 75
Fc1cccc(Oc2ncc(Cl)cn2)c1-c1cc(C2CC2)on1 : 98
FCc1cc(-c2c(F)cccc2Oc2ncc(Cl)cn2)no1 : 55
FC(F)c1cc(-c2c(Cl)cccc2Oc2ncc(Cl)cn2)on1 : 100

----------
The reader will find reported Plant response rating, Wheat values listed item by item below.
# System: winter wheat (Triticum aestivum)
# Experimental Protocol: Test D pre-/postemergence plant response
# Format: in vivo
# Settings: Postemergence, 125 g ai/ha; scale 0 to 100, 0 no effect, 100 complete control
Readout Type: Plant response rating, Wheat

FCc1cc(-c2c(F)cccc2Oc2ncc(Cl)cn2)no1 [Compound 57] : 20
Fc1cccc(Oc2ncc(Cl)cn2)c1-c1cc(C2CC2)on1 [Compound 130] : 35
Fc1ccc(Oc2ncc(Cl)cn2)c(-c2cc(C(F)F)on2)c1Cl [Compound 96] : 10
Fc1ccc(Oc2ncc(Cl)cn2)c(-c2cc(C(F)F)on2)c1F [Compound 113] : 5
FC(Cl)(Cl)c1cc(-c2ccccc2Oc2ncc(Cl)cn2)no1 [Compound 198] : 5
FC(Cl)c1cc(-c2ccccc2Oc2ncc(Cl)cn2)no1 (centres unmarked) [Compound 116] : 5
Clc1cnc(Oc2ccccc2-c2ccon2)nc1 [Compound 185] : 0
CC(F)(F)c1cc(-c2ccccc2Oc2ncc(Cl)cn2)on1 [Compound 178] : 10

Data origin, for the record: patent US10131652B2
